test system: MOLT-4 leukemia; test: NCI tumour cell line growth inhibition, 48 h
Listed here: items and their measured TGI.
recordedMetric: TGI

INSERT INTO assay_data (compound, recordedmetric, reportedvalue) VALUES
  ('O=C1OC(/C=C/c2ccccc2)C(=O)C1=O (stereo unspecified)', 'TGI', '> 100 µM'),
  ('O=C1CCCC1C(O)(C(F)(F)Cl)C(F)(F)Cl (stereo unspecified)', 'TGI', '> 10 µM'),
  ('C[C@H](OC(=O)/C=C/c1ccc(O)c(O)c1)[C@H](C)OC(=O)/C=C/c1ccc(O)c(O)c1', 'TGI', '> 100 µM'),
  ('CCN(CC)CCCNc1c2cc(OC)ccc2nc2cccc([N+](=O)[O-])c12', 'TGI', '0.554 µM'),
  ('CCOC(=O)C1=CN(Cc2ccccc2)C2ON=C(c3ccc(Cl)cc3)C2C1 (stereo unspecified)', 'TGI', '> 100 µM'),
  ('COc1ccc(/C=C/c2cnnc3ccccc23)cc1OC', 'TGI', '> 10 µM'),
  ('COc1ccc2c(c1)cn1c3ccc(OC)cc3[nH]c(=O)c21', 'TGI', '1.04 µM'),
  ('CC12CCC(C)(c3cc(O)c(O)cc31)c1cc(O)c(O)cc12', 'TGI', '42.5 µM'),
  ('CN(Cc1cccc(Cl)c1)c1ccc(CO)c(Cl)c1', 'TGI', '56.6 µM'),
  ('c1ccc2c[n+](Cc3ccnc4ccccc34)ccc2c1', 'TGI', '> 100 µM'),
  ('COc1ccc(/C=C2\NC(=S)N(CN3CCOCC3)C2=O)cc1', 'TGI', '> 100 µM'),
  ('Nc1nc(N)c(N=Nc2ccc([As](=O)(O)O)c(O)c2)c(N)n1', 'TGI', '> 48.3 µM'),
  ('COC(=O)c1cc(OCc2cc(OCc3ccc(Br)cc3)cc(OCc3ccc(Br)cc3)c2)cc(OCc2cc(OCc3ccc(Br)cc3)cc(OCc3ccc(Br)cc3)c2)c1', 'TGI', '> 100 µM'),
  ('COC(=O)c1cccc(COc2ccc([N+](=O)[O-])cc2Cl)c1', 'TGI', '> 100 µM'),
  ('COC(=O)/C=C/c1cc(OC)c2c(c1)[C@@H](C(=O)OC)[C@H](c1ccc(OC)c(OC)c1)O2', 'TGI', '> 100 µM'),
  ('COC(=O)/C=C/[C@H]1[C@H](C)N1S(=O)(=O)c1ccc(C)cc1 (stereo partly specified)', 'TGI', '> 100 µM');
